B1: SPRY1 (parent)
chain: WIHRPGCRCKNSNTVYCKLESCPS

- Variants of: B1
- procedure_details: protein stability index of a GFP-peptide fusion (GPS, HEK-293T) (PSI 1-6); higher = more stable;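 note: lentivirally expressed fusions sorted by FACS into six bins by GFP to DsRed ratio, PSI derived from sequencing read proportions per bin multiplied by bin number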
- run_conditions: c terminus: a fixed tail appended
Think of 2 as a floor: if protein stability index stands on it or above, it is condition met; beneath it, condition not met.

Identify whether the reported protein stability index of the following variant is 2 or greater: G6R
condition met

Tell me whether protein stability index is at least 2 here: N13C
condition met

Evaluate N11V : protein stability index at minimum 2?
condition met

Tell me whether protein stability index is at least 2 here: R8P
condition met

Please tell me: is the variant T14F at or over 2 in terms of protein stability index?
condition not met

Form field: protein stability index at least 2? Entry: S12A
condition met

Does the reported protein stability index for C9A fall at or above the 2 mark?
condition met

Has I2R a recorded protein stability index greater than or equal to 2?
condition met

# check: protein stability index of H3L is greater than or equal to 2
condition met

Form field: protein stability index at least 2? Entry: I2F
condition not met

Kindly determine if protein stability index recorded for S12V is above or exactly 2.
condition met

Could you verify whether the entry Y16H shows protein stability index of no less than 2?
condition met

Hi team, for K10D , is the recorded protein stability index at or above 2?
condition met

# bool: protein stability index of K18G >= 2
condition met

Textbook exercise: given the entry K10N , state whether its protein stability index is greater than or equal to 2.
condition met

Entry E20N : is its protein stability index no less than 2?
condition met

protein stability index >= 2 for V15C ?
condition met

Item I2K with protein stability index of 2 or above?
condition met

Is it the case that C17N has protein stability index reaching or exceeding 2?
condition not met

// inclusive: protein stability index at least 2? input: R4Y
condition met

Evaluate S24C : protein stability index at minimum 2?
condition met

Decide: protein stability index of P23S >= 2?
condition met

hey, is protein stability index for this one >= 2? W1P
condition met

# check: protein stability index of N11W is greater than or equal to 2
condition met

Item S12N with protein stability index of 2 or above?
condition met

Decide: protein stability index of N11E >= 2?
condition met

Check the entry S12K : does protein stability index equal or exceed 2?
condition met

# bool: protein stability index of C7V >= 2
condition not met

protein stability index >= 2 for N13F ?
condition met

I'd appreciate it if you could say whether G6Y has protein stability index at least equal to 2.
condition met

For this variant, is measured protein stability index 2 or higher? K10S
condition met

Check this variant for protein stability index at or above 2: C9S
condition met

# bool: protein stability index of W1G >= 2
condition met

API: above_or_equal(metric=protein stability index, cutoff=2) for item S12D
condition met

Dear colleague, could you confirm whether L19T has protein stability index at or above 2?
condition met

Please tell me: is the variant N13Q at or over 2 in terms of protein stability index?
condition met

Dear colleague, could you confirm whether W1L has protein stability index at or above 2?
condition met

Could you please find out whether R4D has protein stability index that meets 2 or exceeds it?
condition met

Please indicate if the recorded protein stability index for S12G meets or exceeds 2.
condition met

Test whether the variant P5E records protein stability index of 2 or higher.
condition met

Threshold query (protein stability index >= 2) on V15R
condition met

Is the recorded value of protein stability index equal to or greater than 2 for this variant? E20M
condition not met

Is reported protein stability index greater than or equal to 2 here: K10W
condition met

State whether the measured protein stability index reaches 2, counting equality as reaching it, for C22S
condition met

hey, is protein stability index for this one >= 2? I2C
condition met

Threshold query (protein stability index >= 2) on G6S
condition met

Answer whether protein stability index of P23R is greater than or equal to 2.
condition not met

Has R4F a recorded protein stability index greater than or equal to 2?
condition met

Please indicate if the recorded protein stability index for K10P meets or exceeds 2.
condition met

In plain terms: is recorded protein stability index at least 2 for C22M ?
condition not met

hey, is protein stability index for this one >= 2? R8K
condition met

Textbook exercise: given the entry W1R , state whether its protein stability index is greater than or equal to 2.
condition met

Identify whether the reported protein stability index of the following variant is 2 or greater: I2V
condition met

hey, is protein stability index for this one >= 2? V15Y
condition not met

Threshold query (protein stability index >= 2) on Y16V
condition met

protein stability index >= 2 for C9P ?
condition met

Assess whether reported protein stability index for E20H sits at 2 or higher.
condition not met

Test whether the variant S12Q records protein stability index of 2 or higher.
condition met

Identify whether the reported protein stability index of the following variant is 2 or greater: R8I
condition met

Check the entry S21D : does protein stability index equal or exceed 2?
condition met

Can K18D be said to have protein stability index at or above 2?
condition met

I'd appreciate it if you could say whether H3Q has protein stability index at least equal to 2.
condition met

Entry P5T : is its protein stability index no less than 2?
condition met

Hello, I need to know if G6P has measured protein stability index not below 2. Thanks!
condition met

Assess whether reported protein stability index for S21N sits at 2 or higher.
condition met

Is protein stability index for G6F at or above 2?
condition not met

Form field: protein stability index at least 2? Entry: K18W
condition not met

Reported protein stability index reaches at least 2 for E20P ?
condition not met

Please tell me: is the variant R8N at or over 2 in terms of protein stability index?
condition met

Hi, just wondering whether K18Q shows protein stability index of 2 or higher.
condition met

Quick check, protein stability index >= 2? P5I
condition met

In plain terms: is recorded protein stability index at least 2 for P23F ?
condition met

Hello, I need to know if L19N has measured protein stability index not below 2. Thanks!
condition met

hey, is protein stability index for this one >= 2? S12F
condition met

Identify whether the reported protein stability index of the following variant is 2 or greater: V15M
condition not met

Quick check: does K10R have protein stability index greater than or equal to 2?
condition met

Reported protein stability index at or above 2? C17P
condition met

Quick check: does S24E have protein stability index greater than or equal to 2?
condition met

Decide: protein stability index of R8C >= 2?
condition met

Is it the case that E20L has protein stability index reaching or exceeding 2?
condition met

Hello, I need to know if G6K has measured protein stability index not below 2. Thanks!
condition met

Answer whether protein stability index of G6N is greater than or equal to 2.
condition met

Please check the record C22R and state if its protein stability index is at or above 2.
condition met

Please check the record L19H and state if its protein stability index is at or above 2.
condition not met

Assess whether reported protein stability index for P5K sits at 2 or higher.
condition met

Values were extracted from the supplement of paper PMC10567573.
